- Test system: CEM cells HIV-1 protection, formazan growth assay
- PROTOCOL SUMMARY: NCI AIDS Antiviral Assay
- ASSAY CONDITIONS: measured here: growth of uninfected CEM cells
- Procedure: The ability of compounds to protect human CEM cells from HIV-1 infection is measured as a screen for new compounds capable of inhibiting the HIV virus. Five concentrations of drug were tested on uninfected and infected cells and cell growth was measured using a soluble formazan assay. […] Compounds that provided at least 50% protection were retested. Compounds that provided at least 50% protection on retest were listed as moderately active. […]
ENDPOINT: IC50

COMPOUND	EXPERIMENTAL SYSTEM	ENDPOINT	REPORTED
COC(=O)C1=C(C(=O)OC)C(OO)(c2ccccc2)OC1=O (stereo not drawn)	CEM cells HIV-1 protection, formazan growth assay	IC50	> 200 µM
COC1=CC23C=CC1[C@@H](c1ccccc1)C2=C(C)C(=O)N3C(=O)NC1CCCCC1 (stereo partly drawn)	CEM cells HIV-1 protection, formazan growth assay	IC50	> 12.9 µM

I'd like to know its IC50. The compound in question is COC(=O)C1CCC(=O)N1CN(C(C)=O)c1cccc(O)c1 (stereo not drawn)
> 200 µM

// repeat for CC(=O)N(CC1CCCN(C)C1)C12CC3CC(CC(C3)C1)C2 (stereo not drawn) and report
> 117 µM

Query NC(=S)N/C=C(/c1ccc(Cl)cc1Cl)S(=O)(=O)Cc1ccc(Cl)cc1Cl next
> 100 µM

Also NC(=O)c1nc(C2OC(CO)C(O)C2O)cs1 (stereo not drawn) ?
> 200 µM

Repeat for the following compound: Cc1cccc(C)c1NC(=O)C(=O)C1C(=O)N(c2ccccc2)N=C1N (stereo not drawn)
> 708 µM
